System: OVCAR-3 ovarian
ASSAY SUMMARY: NCI-60 one-dose screen, 48 h
CONDITIONS USED: 10 µM unless noted
About 83,000 compounds went through this panel and 20% of them were active in at least one assay; those are over-represented in the sample as a whole. Activity calls are given as the source filed them. Rule for the calls: active = growth percent below 10; inactive = the rest.
Hi! Could you answer with just one of these? active, inactive

# count of solved cases: 3
                                   compound  class_name
0           NC(=S)c1csc(CCNC(=O)c2ccccc2)n1    inactive
1  C=CC(=O)Nc1cccc(C)c1Nc1cc(-c2cccnc2Cc2c(C)c(OC)cc(OC)c2C)ncn1      active
2  CCOC(=O)C(O)C(O)(c1ccccc1)c1ccccc1 (stereo not given)    inactive

Any idea what this test logged for Nc1ccc2c(S(=O)(=O)O)ccc(S(=O)(=O)O)c2c1 ? inactive

Called result for NS(=O)(=O)Oc1ccc(-c2sc3cc(O)ccc3c2C(=O)c2ccc(OCCN3CCCCC3)cc2)cc1 inactive

Recorded call for COc1ccc(C(=O)/C=C/c2cc3c(c(OC)c2)OCC(=O)N3)cc1 ? active

Short answer needed: outcome of this test for COc1ccc(-c2cc(-c3ccc(Nc4nc(Nc5ccccc5)nc(Nc5ccc(Cl)cc5)n4)cc3)nc(N)c2C#N)cc1 ? active

What did the test return for CN(C)CCn1cc(-c2ccc3c(Nc4ccc(CC(=O)Nc5cccc(F)c5)cc4)ncnc3c2)cn1 ? active

What outcome does the record of this test show for O=C(Nc1ccccc1)c1sc(-c2cccc(C(F)(F)F)c2)cc1O ? inactive

# outcome recorded in this test, key = COc1ccc(OC)c(Nc2nc3nonc3nc2Nc2cccc(Br)c2)c1 inactive
